In this section, each of the compounds is paired with its reported nuclei count.
assay: inhibitors of E-selectin induction by TNFa, primary screen, imaging, HUVEC, immunofluorescence, MLSMR starter and 10KST1 sets (AID 487); details: HUVEC TNFalpha-induced E-selectin immunofluorescence imaging, at 2 µM; measured here: cell number, toxicity;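 note: 100% = median nuclei count of all wells on the same plate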
I'd appreciate it if you included the unit after the number.

Cc1cc(C)n(-c2nc3c(c(=O)n(Cc4ccc(Cl)c(Cl)c4)c(=O)n3C)n2C)n1
115%
CC(=O)Nc1ccc(NCC(O)COc2ccccc2)cc1 (stereo not drawn)
81.4%
COc1ccccc1Oc1ccc(S(=O)(=O)N2CCOCC2)cc1S(=O)(=O)N1CCOCC1
132%
O=C(NCc1ccco1)C(c1ccco1)N(C(=O)Cn1nnc2ccccc21)c1ccc2c(c1)CCC2 (stereo not drawn)
104%
Cc1cc(C)n(-c2nc(C)nc3sc4c(c23)CCC(C)C4)n1 (stereo not drawn)
121%

Quick check: nuclei count of C=CCn1c(COc2ccc(Cl)cc2)nnc1SCC(=O)N1CC(=O)Nc2ccccc21 ? 110%
